assay: Example 5: 4-CNAB plasma pharmacokinetics, single oral doses, healthy male volunteers; type: in vivo, human; conditions: male, human, plasma, po, with insulin, 100 Units/450 mg oral
Measured metric: AUC(0-t) (ng·h/mL)
One number for each entry, in ng·h/mL.

## Input Please report the measured AUC(0-t) for O=C(O)CCCNC(=O)c1ccc(Cl)cc1O [4-CNAB]
## Output 26000

###

experiment: Example 8: food effect on 4-CNAB pharmacokinetics, type 1 diabetes patients; type: in vivo, human; details: human, plasma, oral, period 0-3 hours post-dose; Breakfast 20 min post-dose; read-out: Plasma 4-CNAB tmax
Measured metric: Tmax (min)
Numbers only, in min.

## Input Please report the measured Tmax for O=C(O)CCCNC(=O)c1ccc(Cl)cc1O
## Output 27.6

###

experiment: Example 8: food effect on 4-CNAB pharmacokinetics, type 1 diabetes patients; format: in vivo, human; details: human, plasma, oral, period 0-3 hours post-dose; Fasting
Measured metric: Cmax (ng/mL)
Answers are plain numbers, in ng/mL.

## Input Please report the measured Cmax for O=C(O)CCCNC(=O)c1ccc(Cl)cc1O [4-CNAB]
## Output 21800

###

experiment: Example 5: 4-CNAB plasma pharmacokinetics, single oral doses, healthy male volunteers; format: in vivo, human; conditions: male, human, plasma, po, with insulin, 150 Units/100 mg oral
Measured metric: AUC(0-inf) (µg·h/mL)
One number for each entry, in µg·h/mL.

## Input Please report the measured AUC(0-inf) for O=C(O)CCCNC(=O)c1ccc(Cl)cc1O
## Output 4.92

###

assay: Example 5: 4-CNAB plasma pharmacokinetics, single oral doses, healthy male volunteers; format: in vivo, human; details: male, human, plasma, po, with insulin, 100 Units/600 mg oral
Measured metric: Cmax (ng/mL)
One number for each entry, in ng/mL.

## Input Please report the measured Cmax for O=C(O)CCCNC(=O)c1ccc(Cl)cc1O [4-CNAB]
## Output 35800

###

test: Example 5: 4-CNAB plasma pharmacokinetics, single oral doses, healthy male volunteers; assay type: in vivo, human; conditions: 4-CNAB alone 800 mg oral
Measured metric: 4-CNAB Kel

## Input Please report the measured 4-CNAB Kel for O=C(O)CCCNC(=O)c1ccc(Cl)cc1O
## Output 0.12 h⁻¹

###

test: Example 5: 4-CNAB plasma pharmacokinetics, single oral doses, healthy male volunteers; format: in vivo, human; conditions: male, human, plasma, oral, 400 mg, Group/Treatment 1/1, 4-CNAB dose 400, alone; unaudited data; read-out: 4-CNAB tmax (range)
Measured metric: Tmax (min)
Numbers only, in min.

## Input Please report the measured Tmax for O=C(O)CCCNC(=O)c1ccc(Cl)cc1O [4-CNAB]
## Output 30

###

test: Example 5: 4-CNAB plasma pharmacokinetics, single oral doses, healthy male volunteers; format: in vivo, human; settings: male, human, plasma, oral, across treatments; read-out: 4-CNAB MRT, range
Measured metric: MRT

## Input Please report the measured MRT for O=C(O)CCCNC(=O)c1ccc(Cl)cc1O [4-CNAB]
## Output 1.4 to 1.8 h

###

test: Example 5: 4-CNAB plasma pharmacokinetics, single oral doses, healthy male volunteers; format: in vivo, human; settings: male, human, plasma, po, with insulin, 150 Units/200 mg oral
Measured metric: AUC(0-t) (ng·h/mL)
Numbers only, in ng·h/mL.

## Input Please report the measured AUC(0-t) for O=C(O)CCCNC(=O)c1ccc(Cl)cc1O [4-CNAB]
## Output 10000

###

test: Example 5: 4-CNAB plasma pharmacokinetics, single oral doses, healthy male volunteers; format: in vivo, human; details: male, human, plasma, oral, Group/Treatment 3/1, 4-CNAB dose 300, with insulin; unaudited data; read-out: 4-CNAB tmax (range)
Measured metric: Tmax (min)
Give bare numbers, in min.

## Input Please report the measured Tmax for O=C(O)CCCNC(=O)c1ccc(Cl)cc1O
## Output 30

###

test: Example 5: 4-CNAB plasma pharmacokinetics, single oral doses, healthy male volunteers; assay type: in vivo, human; conditions: male, human, plasma, po, with insulin, 100 Units/600 mg oral
Measured metric: AUC(0-inf) (ng·h/mL)
Numbers only, in ng·h/mL.

## Input Please report the measured AUC(0-inf) for O=C(O)CCCNC(=O)c1ccc(Cl)cc1O
## Output 37600

###

assay: Example 8: food effect on 4-CNAB pharmacokinetics, type 1 diabetes patients; type: in vivo, human; settings: human, plasma, oral, period 0-3 hours post-dose; Fasting
Measured metric: AUC (ng·h/mL)
Give bare numbers, in ng·h/mL.

## Input Please report the measured AUC for O=C(O)CCCNC(=O)c1ccc(Cl)cc1O
## Output 18300

###

Experiment: Example 8: food effect on 4-CNAB pharmacokinetics, type 1 diabetes patients
Assay type: in vivo, human
Details: human, plasma, oral, period 0-3 hours post-dose; Breakfast 30 min post-dose
Method: A single-center, open label, randomized, single dose, 3-way cross-over study was conducted in type 1 diabetes mellitus patients to investigate the effect of food on the absorption and pharmacokinetics of insulin after a single dose of oral 4-CNAB/insulin, and to determine the effect of food on the pharmacodynamics of glucose and C-peptide after a single oral dose of 4-CNAB/insulin. […]
Measured metric: AUC (ng·h/mL)
One number for each entry, in ng·h/mL.

## Input Please report the measured AUC for O=C(O)CCCNC(=O)c1ccc(Cl)cc1O [4-CNAB]
## Output 17100

###

Experiment: Example 5: 4-CNAB plasma pharmacokinetics, single oral doses, healthy male volunteers
Format: in vivo, human
Details: male, human, plasma, po, with insulin, 100 Units/300 mg oral
Experimental: A single center, double-blind, randomized placebo-controlled study undertaken in healthy human subjects in order to assess the safety and tolerability of escalating single oral doses of 4-CNAB capsules and insulin/4-CNAB capsules. […] The concentration of 4-CNAB in plasma was determined using a combination of liquid chromatography and Mass spectrometry assay known as LC-MS/MS. […] The eluting peaks were quantified by MS/MS. […]
Measured metric: AUC(0-inf) (ng·h/mL)
Numbers only, in ng·h/mL.

## Input Please report the measured AUC(0-inf) for O=C(O)CCCNC(=O)c1ccc(Cl)cc1O
## Output 9240

###

test: Example 5: 4-CNAB plasma pharmacokinetics, single oral doses, healthy male volunteers; format: in vivo, human; settings: male, human, plasma, po, 800 mg, 4-CNAB alone 800 mg oral; read-out: 4-CNAB Vd/F
Measured metric: Vd/F (L)
Numbers only, in L.

## Input Please report the measured Vd/F for O=C(O)CCCNC(=O)c1ccc(Cl)cc1O
## Output 156

###

assay: Example 5: 4-CNAB plasma pharmacokinetics, single oral doses, healthy male volunteers; assay type: in vivo, human; conditions: male, human, plasma, oral, Group/Treatment 2/3, 4-CNAB dose 600, with insulin; unaudited data; read-out: 4-CNAB tmax (range)
Measured metric: Tmax

## Input Please report the measured Tmax for O=C(O)CCCNC(=O)c1ccc(Cl)cc1O
## Output 30 min

###

experiment: Example 5: 4-CNAB plasma pharmacokinetics, single oral doses, healthy male volunteers; assay type: in vivo, human; settings: male, human, plasma, oral, 2000 mg, Group/Treatment 1/4, 4-CNAB dose 2000, alone; unaudited data
Measured metric: AUC
State the value with its unit after it.

## Input Please report the measured AUC for O=C(O)CCCNC(=O)c1ccc(Cl)cc1O
## Output 213 µg·h/mL

###

assay: Example 5: 4-CNAB plasma pharmacokinetics, single oral doses, healthy male volunteers; type: in vivo, human; settings: male, human, plasma, oral, Group/Treatment 2/3, 4-CNAB dose 600, with insulin; unaudited data
Measured metric: Cmax
State the value with its unit after it.

## Input Please report the measured Cmax for O=C(O)CCCNC(=O)c1ccc(Cl)cc1O
## Output 33200 ng/mL

###

experiment: Example 5: 4-CNAB plasma pharmacokinetics, single oral doses, healthy male volunteers; format: in vivo, human; conditions: male, human, plasma, po, with insulin, 150 Units/200 mg oral; read-out: 4-CNAB tmax, median
Measured metric: Tmax (min)
Give bare numbers, in min.

## Input Please report the measured Tmax for O=C(O)CCCNC(=O)c1ccc(Cl)cc1O
## Output 30

###

experiment: Example 8: food effect on 4-CNAB pharmacokinetics, type 1 diabetes patients; assay type: in vivo, human; conditions: human, plasma, po, 400 mg, 400 mg 4-CNAB/300 IU insulin oral; Breakfast 20 min post-dose; read-out: Plasma 4-CNAB AUC0-inf
Measured metric: AUC(0-inf) (ng·h/mL)
One number for each entry, in ng·h/mL.

## Input Please report the measured AUC(0-inf) for O=C(O)CCCNC(=O)c1ccc(Cl)cc1O
## Output 18000

###

experiment: Example 5: 4-CNAB plasma pharmacokinetics, single oral doses, healthy male volunteers; assay type: in vivo, human; settings: male, human, plasma, oral, Group/Treatment 2/2, 4-CNAB dose 200, with insulin; unaudited data; read-out: 4-CNAB tmax (range)
Measured metric: Tmax
State the value with its unit after it.

## Input Please report the measured Tmax for O=C(O)CCCNC(=O)c1ccc(Cl)cc1O [4-CNAB]
## Output 30 min
